- Test system: FLT3
- condition_description: concentration: 1 μM, replicates: in singlicate; n = 1;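 also: KINOMEscan kinase panel screen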
Consider the following compounds; for each one, report its %Inh.
Dear colleague, please return just the value in %, with no unit written.

stdin: Param item = COc1cccc(NC(=O)NC2CCN(c3ccnc(Nc4ccc(F)cc4)n3)C2)c1 (centres unmarked) [GSK1379721] ; retrieve measured %Inh.
stdout: 3

stdin: Given the entry COC(=O)c1c(-c2ccccc2)c2cc(C(=O)O)ccc2c(=O)n1Cc1ccccc1 , report its measured %Inh.
stdout: 0

stdin: For the compound CS(=O)(=O)c1ccc(-c2c(-c3ncn[nH]3)sc(N3CCOCC3)c2C#N)cc1 , what %Inh is on record?
stdout: 0

stdin: // query %Inh value for entry Nc1nc(-c2nccs2)c(-c2ccnc3ccccc23)s1 [GW693542]
stdout: 2

stdin: Which %Inh value is on record for Cn1ccc2ncnc(Oc3cccc(C(=O)Nc4ccccc4)c3)c21 ?
stdout: 17

====

- System: CDK7
- condition_description: concentration: 1 μM, replicates: in singlicate; n = 1
observed_property: %Inh (%)
A number alone suffices; assume %.

stdin: Return reported %Inh; argument: Cc1cccc(-c2nc(Nc3cccc(C(N)=O)c3)c3ccccc3n2)n1 [GW876019]
stdout: 8

stdin: # %Inh lookup, item CN(C)CCN(C)C(=O)c1cc(-c2ccncc2)c(-c2ccc(Cl)c(O)c2)o1.Cl.Cl [SB-710397]
stdout: 0

stdin: Bench note: what %Inh did Cc1ccc(NC(=O)Nc2cc(C(C)(C)C)nn2-c2ccccc2)cc1 [GSK1014915] show?
stdout: 0

stdin: // %Inh lookup, key: Cc1cc(-c2ccc3c(c2)CC[C@@H](N[C@@H](C)c2ccccc2)C3)cnc1N.Cl [GW412617]
stdout: 0

stdin: Find the recorded %Inh belonging to Cc1cccc(-c2cc(Nc3ccncc3)c3ccccc3n2)n1 [GSK223675] and report it.
stdout: 0

stdin: For COc1ccc(Nc2nccc(NCCNC(=O)Nc3ccccc3F)n2)cc1 [GSK1379901] , what is its reported %Inh?
stdout: 0

stdin: Which %Inh is reported for this molecule? COc1cc2ncnc(Nc3ccc4nc(-c5ccccc5)[nH]c4c3)c2cc1OC.Cl [GW282450]
stdout: 0

stdin: What does the data say about its %Inh? Entry: O=C1NC(=O)C(N2CCc3ccccc32)=C1c1ccccc1Cl [SB-373598]
stdout: 29

stdin: Entry Cc1csc(-c2nc(Nc3ccncc3)c3ccccc3n2)n1 [GW869640] : reported %Inh = ?
stdout: 31

====

- Test system: TIE1
- condition_description: concentration: 1 μM, replicates: in singlicate; n = 1
observed_property: %Inh (%)
The answer is to be given in %; state only the numeric part.

stdin: Quick check: %Inh on TIE1, item COC(=O)c1c(-c2ccccc2)c2cc(OC)ccc2c(=O)n1Cc1ccccc1 ?
stdout: 3

stdin: Recorded %Inh for Cl.NC(=O)c1cccc(Nc2nccc(Nc3ccc(Oc4cccc(Cl)c4)c(Cl)c3)n2)c1 with TIE1, please?
stdout: 12

stdin: Short answer please: %Inh, TIE1, entry CS(=O)(=O)c1ccc(-c2nc3n(c2-c2ccncc2)CCC3)cc1
stdout: 8

stdin: Request - read-out %Inh | tested on TIE1 | compound Fc1cccc(COc2nnc(-c3ccc4c(c3)CCO4)o2)c1
stdout: 7

stdin: What value of %Inh on TIE1 does COc1cc2ncnc(Nc3ccc4nc(-c5ccccc5)[nH]c4c3)c2cc1OC.Cl have?
stdout: 1
